Sourced from ChEMBL document CHEMBL1157780

Exercise: state measured IC50 for each of the molecules provided.
- method: Inhibition of recombinant RGGT assessed as incorporation of [3H]GGPP into His-tagged canine rab1a after 20 mins
One number for each entry, in µM.

O=C(O)C(O)(Cc1cnc2ccccn12)P(=O)(O)O (single isomer, unassigned; (+)) = 1.3

Answer with the recorded IC50 of O=C(O)C(O)(Cc1cccnc1)P(=O)(O)O (racemic) only.
32

---

- method: Inhibition of recombinant RGGT by uncompetitive inhibition based Lineweaver-Burke plot using Rab1a as substrate
metric: pKi
Give bare numbers, as −log10 of the molar value.

O=C(O)C(O)(Cc1cnc2ccccn12)P(=O)(O)O (single isomer, unassigned; (+)) = 6.68

Shifting focus to the molecule that follows.
Note down pKi recorded for O=C(O)C(O)(Cc1cccnc1)P(=O)(O)O (racemic)
4.47
